- Tested on: groupe de huit goûteurs expérimentés
- assay.protocol: Sweetening power judged by a panel of eight experienced tasters against a sucrose reference solution
- Assay type: in vivo
- conditions: by comparison with a 10 % sucrose solution; weight basis; approximate
measurement.type: pouvoir édulcorant, sur une base pondérale

Q) Given the compound `O=C(O)CNC(=Nc1ccccc1)NCC1CCCCC1` , what is its reported pouvoir édulcorant, sur une base pondérale?
A) ~2 000 fois celui du saccharose

Q) And for `CCCCCCN=C(NCC(=O)O)Nc1ccc(C#N)cc1` ?
A) ~1400 times sucrose

Q) And for `N#Cc1ccc(N=C(NCC(=O)O)NC2CCCCC2)cc1` ?
A) ~8 500 fois celui du saccharose

Q) And for `COC(=O)c1ccc(N=C(NCC(=O)O)NCC2CCCCC2)cc1` ?
A) ~500 fois celui du saccharose

Q) And for `C[C@@H](NC(=Nc1ccc(C#N)cc1)NCC(=O)O)c1ccccc1` ?
A) ~2 500 fois celui du saccharose

Q) And for `N#Cc1ccc(N=C(NCC(=O)O)NCC2CCCCC2)cc1` ?
A) ~17 000 fois celui du saccharose

Q) And for `C[C@H](NC(=Nc1ccc(C#N)cc1)NCC(=O)O)c1ccccc1` ?
A) ~10 000 fois celui du saccharose

Q) And for `N#Cc1ccc(N=C(NCC(=O)O)Nc2ccccc2)cc1` ?
A) ~650 fois celui du saccharose

Q) And for `N#Cc1ccc(N=C(NCCc2ccccc2)NCC(=O)O)cc1` ?
A) ~4 200 fois celui du saccharose

Q) And for `N#Cc1ccc(N=C(NCC(=O)O)NCc2ccccc2)cc1` ?
A) ~22 000 fois celui du saccharose

Q) And for `O=C(O)CNC(=Nc1ccc([N+](=O)[O-])cc1)NCC1CCCCC1` ?
A) ~4 000 fois celui du saccharose

Q) And for `CN(Cc1ccccc1)C(=Nc1ccc(C#N)cc1)NCC(=O)O` ?
A) ~1 200 fois celui du saccharose

Q) And for `C[C@H](NC(=Nc1cc(Cl)cc(Cl)c1)NCC(=O)O)c1ccccc1` ?
A) ~50 000 fois celui du saccharose

Q) And for `O=C(O)CNC(=Nc1ccc(Cl)cc1)NCC1CCCCC1` ?
A) ~1 500 fois celui du saccharose

Q) And for `N#Cc1ccc(NC(=NC2CCCCCCC2)NCC(=O)O)cc1` ?
A) ~100 000 fois celui du saccharose

###

Assignment: determine reported pouvoir édulcorant, sur une base pondérale for the given compounds.
- System: groupe de huit goûteurs expérimentés
- assay.protocol: Sweetening power judged by a panel of eight experienced tasters against a sucrose reference solution
- Type: in vivo
- conditions: by comparison with a 2 % sucrose solution; weight basis; approximate

Q) Given the compound `O=C(O)CNC(=Nc1ccccc1)Nc1ccccc1` , what is its reported pouvoir édulcorant, sur une base pondérale?
A) ~500 fois celui du saccharose

Q) And for `N#Cc1ccc(N=C(NCC(=O)O)NC2CCCCCCCC2)cc1` ?
A) ~200 000 fois celui du saccharose

Q) And for CC(NC(=Nc1cc(Cl)cc(Cl)c1)N[C@H](C)C(=O)O)c1ccccc1 (stereo partly shown) ?
A) ~120 fois celui du saccharose

Q) And for `N#Cc1cccc(N=C(NCC(=O)O)NCC2CCCCC2)c1` ?
A) ~5 000 fois celui du saccharose

Q) And for `O=C(O)CNC(=Nc1cc(Cl)cc(Cl)c1)Nc1cc(Cl)cc(Cl)c1` ?
A) ~1 000 fois celui du saccharose

Q) And for `O=C(O)CNC(=Nc1cc(Cl)cc(Cl)c1)NCc1ccccc1` ?
A) ~80 000 fois celui du saccharose

Q) And for `O=C(O)CNC(=Nc1cc(Cl)cc(Cl)c1)NC1CCCCCCC1` ?
A) ~60 000 fois celui du saccharose

Q) And for `CCC(C)(C)NC(=Nc1ccc(C#N)cc1)NCC(=O)O` ?
A) ~300 fois celui du saccharose

Q) And for `O=C(O)CNC(=Nc1cccc2ccccc12)Nc1cc(Cl)cc(Cl)c1` ?
A) ~30 000 fois celui du saccharose

Q) And for `Cc1cc(N=C(NCC(=O)O)N[C@@H](C)c2ccccc2)ccc1C#N` ?
A) ~50 000 fois celui du saccharose
